# assay_system: HDAC8 (Homo sapiens (Human), UniProt Q9BY41)
# Sequence (Q9BY41 whole entry): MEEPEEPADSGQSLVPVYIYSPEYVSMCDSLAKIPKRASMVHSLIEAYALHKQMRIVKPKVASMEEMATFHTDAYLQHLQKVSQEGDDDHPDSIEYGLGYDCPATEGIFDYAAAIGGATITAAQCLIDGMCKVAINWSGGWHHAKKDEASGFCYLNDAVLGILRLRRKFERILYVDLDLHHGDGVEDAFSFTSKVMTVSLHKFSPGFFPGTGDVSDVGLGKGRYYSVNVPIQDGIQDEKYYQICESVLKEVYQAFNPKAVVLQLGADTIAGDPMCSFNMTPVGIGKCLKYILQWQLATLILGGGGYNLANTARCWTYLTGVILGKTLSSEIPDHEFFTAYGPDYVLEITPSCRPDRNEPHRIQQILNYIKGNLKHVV
In this section we review reported IC50 values for a set of compounds.

- compound: "O=C(NO)c1cccc2c1C[C@]1(CCN(Cc3ccc(Cl)c(C(F)(F)F)c3)C1=O)C2 [HDTK054]"
  assay_system: "HDAC8 (Homo sapiens (Human), UniProt Q9BY41)"
  val: "5000 to 10000 nM"

Please look at the following compound next.
So what's the measured IC50 for this one? O=C(NO)c1cccc(Nc2nc3cc(Cl)c(Cl)cc3o2)c1 [HDTK010]
500 to 1000 nM

----------
# assay_system: HDAC9 (Homo sapiens (Human))
# Sequence (Q9UKV0 whole entry): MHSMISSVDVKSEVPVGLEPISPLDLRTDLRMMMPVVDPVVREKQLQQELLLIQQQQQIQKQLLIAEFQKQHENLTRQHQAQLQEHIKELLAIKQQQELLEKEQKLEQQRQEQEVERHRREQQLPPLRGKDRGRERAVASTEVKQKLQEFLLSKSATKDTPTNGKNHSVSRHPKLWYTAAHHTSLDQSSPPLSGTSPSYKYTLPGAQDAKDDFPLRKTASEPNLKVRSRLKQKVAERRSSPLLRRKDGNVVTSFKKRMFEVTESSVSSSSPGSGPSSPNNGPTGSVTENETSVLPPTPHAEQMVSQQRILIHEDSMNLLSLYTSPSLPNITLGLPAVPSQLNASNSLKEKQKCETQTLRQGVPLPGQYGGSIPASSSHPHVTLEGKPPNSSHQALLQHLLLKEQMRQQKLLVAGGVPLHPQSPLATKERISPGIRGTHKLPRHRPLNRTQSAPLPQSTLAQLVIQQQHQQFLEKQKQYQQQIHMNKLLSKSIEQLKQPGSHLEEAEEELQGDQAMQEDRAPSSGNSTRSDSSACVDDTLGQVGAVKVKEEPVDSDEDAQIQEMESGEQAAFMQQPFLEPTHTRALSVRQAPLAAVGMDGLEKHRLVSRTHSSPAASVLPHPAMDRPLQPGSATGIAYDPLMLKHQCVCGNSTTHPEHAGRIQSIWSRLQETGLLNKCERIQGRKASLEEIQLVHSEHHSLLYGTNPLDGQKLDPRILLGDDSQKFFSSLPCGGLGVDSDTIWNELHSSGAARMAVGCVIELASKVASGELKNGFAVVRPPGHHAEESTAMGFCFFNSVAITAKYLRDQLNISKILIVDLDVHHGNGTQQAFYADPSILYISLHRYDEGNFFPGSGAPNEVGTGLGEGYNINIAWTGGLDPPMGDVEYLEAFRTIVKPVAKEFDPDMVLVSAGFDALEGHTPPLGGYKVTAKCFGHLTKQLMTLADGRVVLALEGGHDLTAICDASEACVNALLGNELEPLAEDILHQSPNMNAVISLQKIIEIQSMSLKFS
# assay: HDAC inhibition assay, electrophoretic mobility shift (Nanosyn)
# reported_conditions: read-out: HDAC Biochemical IC50 HDAC9
measured_metric: IC50

So what's the measured IC50 for this one? `O=C(NO)c1cccc(Nc2nc3cc(Cl)c(Cl)cc3o2)c1`
> 10 µM
